test: Compound plasma exposure in cyno DRF study; format: in vivo; conditions: cynomolgus monkey, po, 30 mg/kg, 30 mg/kg PO, 14 days of dosing

COMPOUND	AUC / µM·h
CN1CCN([C@H]2CCCN(c3cnc(C(N)=O)c(Nc4ccc(C5CCN(CC6CCN(c7ccc(C(=O)NC8CCC(=O)NC8=O)nc7)CC6)CC5)cc4)n3)C2)C1=O (stereo partly drawn)	0.844
CN1CCN([C@@H]2CCCN(c3cnc(C(N)=O)c(Nc4ccc(C5CCN(C[C@H]6CCN(c7ccc8c(c7)C(=O)N(C7CCC(=O)NC7=O)C8=O)C6)CC5)cc4)n3)C2)C1=O (stereo partly drawn)	0.794
NC(=O)c1ncc(N2CCCCC2)nc1Nc1ccc(C2CCN(C[C@@H]3CCN(c4ccc5c(c4)C(=O)N(C4CCC(=O)NC4=O)C5=O)C3)CC2)cc1 (stereo partly drawn)	1.48
